# tested-system: Human CypA (Homo sapiens (Human))
# protocol-notes: Cyclophilin peptidyl-prolyl isomerase functional assay (PPIase), CypA
# Format: biochemical
# settings: human recombinant enzyme, 10° C.; read-out: Inhibition (Ki, nM) Human CypA
// reported Ki for each item listed
Form entry: value (nM) — number only.

Observe how each entry below is paired with its result.
C/C=C/C[C@@H](C)[C@@H](O)[C@H]1C(=O)N[C@@H](CC)C(=O)N(C)[C@H](OCC/N=C/N(C)C)C(=O)N(C)[C@@H](CC(C)C)C(=O)N[C@@H](C(C)C)C(=O)N(C)[C@@H](CC(C)C)C(=O)N[C@@H](C)C(=O)N[C@H](C)C(=O)N(C)[C@@H](CC(C)C)C(=O)N(C)[C@@H](CC(C)C)C(=O)N(C)[C@@H](C(C)C)C(=O)N1C :: 14
C/C=C/C[C@@H](C)[C@@H](O)[C@H]1C(=O)N[C@@H](CC)C(=O)N(C)[C@H](OCC/N=C(\C)N(C)C)C(=O)N(C)[C@@H](CC(C)C)C(=O)N[C@@H](C(C)C)C(=O)N(C)[C@@H](CC(C)C)C(=O)N[C@@H](C)C(=O)N[C@H](C)C(=O)N(C)[C@@H](CC(C)C)C(=O)N(C)[C@@H](CC(C)C)C(=O)N(C)[C@@H](C(C)C)C(=O)N1C :: 11

Now turn to the next compound.
Lookup: Which Ki is listed for C/C=C/C[C@@H](C)[C@@H](O)[C@H]1C(=O)N[C@@H](CC)C(=O)N(C)[C@H](OCC(C)(C)N(C)C)C(=O)N(C)[C@@H](CC(C)C)C(=O)N[C@@H](C(C)C)C(=O)N(C)[C@@H](CC(C)C)C(=O)N[C@@H](C)C(=O)N[C@H](C)C(=O)N(C)[C@@H](CC(C)C)C(=O)N(C)[C@@H](CC(C)C)C(=O)N(C)[C@@H](C(C)C)C(=O)N1C ?
Found: 25

* * *

# tested-system: Human CypD (Homo sapiens (Human), UniProt P30405)
# Sequence (P30405 30-207): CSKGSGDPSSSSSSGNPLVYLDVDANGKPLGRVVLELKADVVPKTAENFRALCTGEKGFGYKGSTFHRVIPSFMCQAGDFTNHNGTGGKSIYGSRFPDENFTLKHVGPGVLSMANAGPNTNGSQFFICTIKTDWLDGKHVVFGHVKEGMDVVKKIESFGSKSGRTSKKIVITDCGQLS
# protocol-notes: Cyclophilin peptidyl-prolyl isomerase functional assay (PPIase), CypD
# Type: biochemical
# settings: human recombinant enzyme, 10° C.; read-out: Inhibition (Ki, nM) Human CypD
Starred links: 1 amine or outer side, 2 acyl side, 3 side chain; linkers in the order of their positions; H or OH if unused. Non-standard residues stand in square brackets, D forms with d. Residues, ends and D or L forms follow the SMILES beside them. NMeBmt(3-oxo) = C/C=C/C[C@@H](C)C(=O)[C@H](NC)C(=O)O; X2 = CN(C)CCO[C@H](C(=O)[*:2])N(C)[*:1]; NMeL = CN[C@@H](CC(C)C)C(=O)O; NMeV = CN[C@H](C(=O)O)C(C)C
result-type: Ki (nM)
# value in nM; strip the unit string

// solved cases for Ki follow
C/C=C/C[C@@H](C)[C@@H](O)[C@H]1C(=O)N[C@@H](CC)C(=O)N(C)[C@H](OCC(C)(C)N(C)C)C(=O)N(C)[C@@H](CC(C)C)C(=O)N[C@@H](C(C)C)C(=O)N(C)[C@@H](CC(C)C)C(=O)N[C@@H](C)C(=O)N[C@H](C)C(=O)N(C)[C@@H](CC(C)C)C(=O)N(C)[C@@H](CC(C)C)C(=O)N(C)[C@@H](C(C)C)C(=O)N1C :: 6
C/C=C/C[C@@H](C)[C@@H](O)[C@H]1C(=O)N[C@@H](CC)C(=O)N(C)[C@H](OCC/N=C(\C)N(C)C)C(=O)N(C)[C@@H](CC(C)C)C(=O)N[C@@H](C(C)C)C(=O)N(C)[C@@H](CC(C)C)C(=O)N[C@@H](C)C(=O)N[C@H](C)C(=O)N(C)[C@@H](CC(C)C)C(=O)N(C)[C@@H](CC(C)C)C(=O)N(C)[C@@H](C(C)C)C(=O)N1C :: 8.2

Alright, here's another molecule for you.
Lookup: Look up Ki for this molecule: C/C=C/C[C@@H](C)C(=O)[C@H]1C(=O)N[C@@H](C(C)C)C(=O)N(C)[C@H](OCCN(C)C)C(=O)N(C)[C@@H](CC(C)C)C(=O)N[C@@H](C(C)C)C(=O)N(C)[C@@H](CC(C)C)C(=O)N[C@@H](C)C(=O)N[C@H](C)C(=O)N(C)[C@@H](CC(C)C)C(=O)N(C)[C@@H](CC(C)C)C(=O)N(C)[C@@H](C(C)C)C(=O)N1C [Compound 5] (cyclo(A[dA][NMeL][NMeL][NMeV][NMeBmt(3-oxo)]V[X2][NMeL]V[NMeL]))
Found: 17

* * *

# tested-system: recombinant Calcineurin (CaN) (Homo sapiens (Human), UniProt P62937+P63098+Q08209)
# protocol-notes: Calcineurin phosphatase inhibition assay with cyclophilin A
# Format: biochemical
# settings: RII phosphopeptide substrate, read-out: CaN Inhibition (IC50, nM) + CypA
Starred links: 1 amine or outer side, 2 acyl side, 3 side chain; linkers in the order of their positions; H or OH if unused. Non-standard residues stand in square brackets, D forms with d. Residues, ends and D or L forms follow the SMILES beside them. MeBmt = C/C=C/C[C@@H](C)[C@@H](O)[C@H](NC)C(=O)O; X1 = CN([C@H](OCCN1CCOCC1)C(=O)[*:2])[*:1]; X2 = CN(C)CCO[C@H](C(=O)[*:2])N(C)[*:1]; NMeL = CN[C@@H](CC(C)C)C(=O)O; NMeV = CN[C@H](C(=O)O)C(C)C; Nva = CCC[C@H](N)C(=O)O
result-type: IC50 (nM)
Unit nM implied. Number only.

Consider the reported IC50 for these molecules:
C/C=C/C[C@@H](C)[C@@H](O)[C@H]1C(=O)N[C@@H](CCC)C(=O)N(C)[C@H](OCCN2CCOCC2)C(=O)N(C)[C@@H](CC(C)C)C(=O)N[C@@H](C(C)C)C(=O)N(C)[C@@H](CC(C)C)C(=O)N[C@@H](C)C(=O)N[C@H](C)C(=O)N(C)[C@@H](CC(C)C)C(=O)N(C)[C@@H](CC(C)C)C(=O)N(C)[C@@H](C(C)C)C(=O)N1C [Compound 8] (cyclo(A[dA][NMeL][NMeL][NMeV][MeBmt][Nva][X1][NMeL]V[NMeL])) :: 636
C/C=C/C[C@@H](C)[C@@H](O)[C@H]1C(=O)N[C@@H](CCC)C(=O)N(C)[C@H](OCCN(C)C)C(=O)N(C)[C@@H](CC(C)C)C(=O)N[C@@H](C(C)C)C(=O)N(C)[C@@H](CC(C)C)C(=O)N[C@@H](C)C(=O)N[C@H](C)C(=O)N(C)[C@@H](CC(C)C)C(=O)N(C)[C@@H](CC(C)C)C(=O)N(C)[C@@H](C(C)C)C(=O)N1C [Compound 7] (cyclo(A[dA][NMeL][NMeL][NMeV][MeBmt][Nva][X2][NMeL]V[NMeL])) :: 789
C/C=C/C[C@@H](C)[C@@H](O)[C@H]1C(=O)N[C@@H](CC)C(=O)N(C)[C@H](OCC(C)(C)N(C)C)C(=O)N(C)[C@@H](CC(C)C)C(=O)N[C@@H](C(C)C)C(=O)N(C)[C@@H](CC(C)C)C(=O)N[C@@H](C)C(=O)N[C@H](C)C(=O)N(C)[C@@H](CC(C)C)C(=O)N(C)[C@@H](CC(C)C)C(=O)N(C)[C@@H](C(C)C)C(=O)N1C :: 616

Attention now turns to another entry.
Lookup: Entry C/C=C/C[C@@H](C)[C@@H](O)[C@H]1C(=O)N[C@@H](C(C)C)C(=O)N(C)[C@H](OCCN2CCOCC2)C(=O)N(C)[C@@H](CC(C)C)C(=O)N[C@@H](C(C)C)C(=O)N(C)[C@@H](CC(C)C)C(=O)N[C@@H](C)C(=O)N[C@H](C)C(=O)N(C)[C@@H](CC(C)C)C(=O)N(C)[C@@H](CC(C)C)C(=O)N(C)[C@@H](C(C)C)C(=O)N1C [Compound 4] (cyclo(A[dA][NMeL][NMeL][NMeV][MeBmt]V[X1][NMeL]V[NMeL])) has what IC50?
Found: 1320

Data origin, for the record: patent US12522634B2
